System: NCI-H460 lung
Assay: NCI-60 one-dose screen, 48 h (100 = growth as untreated, 0 = no growth, -100 = all killed)
Settings: 10 µM unless noted
Description: Growth inhibition of the NCI-H460 human Non-Small Cell Lung tumor cell line is measured as a screen for anti-cancer activity. Cells are grown in 96 well plates and exposed to the test compound for 48 hours. Compounds are tested at a single concentration, which is 10^-5 M for most compounds. The reported endpoint is percent growth (GI% or GIPRCNT), where numbers from 0 - 100% represent growth inhibition, and numbers from -100% - 0 represent cell death. […]
Compounds without any hit were thinned out: in the full panel of roughly 83,000, 20% have a hit.
I would appreciate it if you labelled entries Y when growth is 50% or higher, otherwise N.

Query: Reported growth reaches at least 50% for O=C(/C=C/Nc1ccc2oc(=O)ccc2c1)c1cc2cc(Br)ccc2oc1=O ?
Reply: Y

Query: Form field: growth at least 50%? Entry: COc1ccc2[nH]cc(-c3nc(N)nnc3-c3cn(C)c4ncccc34)c2c1
Reply: N

Query: Confirm if growth reported for the molecule COc1ccc(NC(=O)c2sc3nc(C(C)C)ccc3c2N)cc1 is 50% or above.
Reply: Y

Query: Reported growth reaches at least 50% for Cc1cc(=O)oc2cc(OCCOc3ccc(/C=C/C(=O)Nc4ccccc4N)cc3)ccc12 ?
Reply: N

Query: Has CC1(c2cc3cc(Br)ccc3oc2=O)NC(=O)c2c(/C=C/C(=O)OC3CC4CCC3(C)C4(C)C)cccc2N1 (stereo not given) a recorded growth greater than or equal to 50%?
Reply: Y

Query: Hi, just wondering whether Cn1nc(C(F)(F)F)cc1-c1cc(Cl)c(COc2ccc(Cl)cc2)c(-c2ccc(Cl)c(C(F)(F)F)c2)c1O shows growth of 50% or higher.
Reply: N

Query: // inclusive: growth at least 50%? input: CCOC(=O)/C=C/c1cccc2c1C(=O)NC(C)(c1cc3cc(Br)ccc3oc1=O)N2 (stereo not given)
Reply: N
